These entries and their values trace back to the supplement of paper PMC6555819.

Test system: RXRa DBDmut IVT, anti-RXR (DBD mutation: RXRa K156A/R161A, NR concentration 90 nM)
assay_info: PBM binding z-score (relative to random genomic background probes); higher = stronger binding; sequences stand for … in GC…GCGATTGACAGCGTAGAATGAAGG
PBM binding z-score below 1 gives Not satisfied; PBM binding z-score at or above it gives Satisfied.

Problem: Entry AGTCATAGTTCACTAGGTAACGTAAGATTCAGCT : is its PBM binding z-score no less than 1?
Solution: Satisfied

Problem: Query CGAACTAGGCCACCAGGACAGTGAAGAGGTTGGA next
Solution: Not satisfied

Problem: Query CCTACTGGGCCAAAAAGGCCATTGATGCCGATAA next
Solution: Not satisfied

Problem: Query CGAACTAGGTCCCCAGGACAGTGAAGAGGTTGGA next
Solution: Not satisfied

Problem: Query CTATGTAGGTTAAGGGGGTCATACAGTTTGAAAG next
Solution: Satisfied

Problem: Query AACGAAAGGTCGACGAGGTGAGTATACACCGTTT next
Solution: Satisfied

Problem: Query CCGAGTAGGTTACGTGGGGGCATTCAGTGCGAAT next
Solution: Satisfied

Problem: Query CCTACTGGGCCAAAAAGGTAATTGATGCCGATAA next
Solution: Not satisfied

Problem: Query ATCGAAAGGTCGAAGGAGAGTATACCCACCCGAA next
Solution: Not satisfied

Problem: Query CCGAGTAGGTTATGAGGGGGCATTCAGTGCGAAT next
Solution: Satisfied

Problem: Query TTACAAAGGTGAAAGGTCGTTGATGCACGCCTTG next
Solution: Satisfied
